Measured values drawn from paper PMC11969024 for this set.

B1: peptide HD2 (from tick evasin EVA4) / CXCL14 (biotinylated, synthetic) (parent)
chain 1: EEDDYTAYAPLTCYFT
chain 2: SKCKCSRKGPKIRYSDVKKLEMKPKYPHCEEKMVIITTKSVSRYRGQEHCLHPKLQSTKRFIKWYNAWNEKRRVYEE

# Variants of: B1
# Test Conditions: with CXCL14 (biotinylated, synthetic); scale: log2
Measured Quantity: enrichment

Sequence String: chain 1 EEDDPTAYAPLTCYFT [chain 1 Y5P]
Value: -4.99
//
Sequence String: chain 1 EEDDYTAYPPLTCYFT [chain 1 A9P]
Value: -6.07
//
Sequence String: chain 1 EEDDYTAYANLTCYFT [chain 1 P10N]
Value: -6.28
//
Sequence String: chain 1 EEDDYTAYAPLTCNFT [chain 1 Y14N]
Value: -5.16
//
Sequence String: chain 1 EEHDYTAYAPLTCYFT [chain 1 D3H]
Value: -5.23
